# Experiment: Stability in human liver microsomes assessed as parent compound remaining at 10 uM preincubated for 5 mins followed by NADPH addition measured after 30 mins by LC-MS/MS analysis relative to control
# Assay type: ADME, Microsome
# Recorded conditions: time 35 min, read-out: Stability
Metric name: remaining at 0.5 h, 10 µM

Tell me the measured remaining at 0.5 h, 10 µM of CC(C)(C)c1ccc(-c2nc(NCCOCCOCCN)nc(NCC3CCCO3)n2)cc1.Cl (stereo unspecified) , please.
> 100%

----------
# Experiment: Stability in human plasma assessed as parent compound remaining at 10 uM incubation upto 120 mins by LC-MS/MS analysis relative to control
# Type: ADME, cell-free
# Recorded conditions: read-out: Stability
Metric name: remaining at 2 h, 10 µM
Value and unit, in that order.

What does the data say about its remaining at 2 h, 10 µM? Entry: CC(C)(C)c1ccc(-c2nc(NCCOCCOCCN)nc(NCC3CCCO3)n2)cc1.Cl (stereo unspecified)
93%

----------
# Experiment: Antiinflammatory activity in […] cells assessed as reduction in LPS-induced IL-6 release at 10 uM pre incubated for 1 hr followed by LPS stimulation and measured after 30 mins by ELISA
# Format: functional
Response key: Y means inhibition at 10 µM >= 40%; N means inhibition at 10 µM < 40%.

CC(C)(C)c1ccc(-c2nc(NCCCOCCOCCCN)nc(NCC3CCCO3)n2)cc1 (stereo unspecified) :: N
CC(C)(C)c1ccc(-c2nc(NCCOCCOCCN)nc(NCc3ccc(F)cc3)n2)cc1 :: Y
Cc1ccc(-c2nc(NCCOCCOCCN)nc(NCC3CCCO3)n2)cc1 (stereo unspecified) :: Y

Please tell me: is the molecule NCCOCCOCCNc1nc(NCC2CCCO2)nc(-c2ccc(Cl)cc2)n1 (stereo unspecified) at or over 40% in terms of inhibition at 10 µM?
N

Please tell me: is the molecule CC(C)(C)c1ccc(-c2nc(NCCOCCOCCN)nc(NCC3CCCO3)n2)cc1.Cl (stereo unspecified) at or over 40% in terms of inhibition at 10 µM?
Y

----------
Answer each item with its documented inhibition at 10 µM.
# Experiment: Antiinflammatory activity in […] cells assessed as reduction in LPS-induced IL-6 release at 10 uM pre incubated for 1 hr followed by LPS stimulation and measured after 30 mins by ELISA
# Assay type: functional
One number for each entry, in %.

Reference set (10 entries):
CC(C)(C)c1ccc(Nc2nc(NCCOCCOCCN)nc(-c3ccc(C(C)(C)C)cc3)n2)cc1 :: 32.8
Cc1ccc(CNc2nc(NCCOCCOCCN)nc(-c3ccc(C(C)(C)C)cc3)n2)cc1 :: 33.3
CC(C)(C)c1ccc(-c2nc(NCCOCCOCCN)nc(NCC3CCCCC3)n2)cc1 :: 24.7
CC(C)(C)c1ccc(-c2nc(NCCOCCN)nc(NCC3CCCO3)n2)cc1 (stereo not given) :: 22.1
NCCOCCOCCNc1nc(NCC2CCCO2)nc(-c2ccc(OC(F)(F)F)cc2)n1 (stereo not given) :: 16.7
CC(C)(C)c1ccc(CNc2nc(NCCOCCOCCN)nc(-c3ccc(C(C)(C)C)cc3)n2)cc1 :: 46.7
CC(C)(C)c1ccc(-c2nc(NCCOCCOCCN)nc(NCc3cccc(F)c3)n2)cc1 :: 46.7
COc1ccc(-c2nc(NCCOCCOCCN)nc(NCC3CCCO3)n2)cc1 (stereo not given) :: 50.1
Cc1cccc(CNc2nc(NCCOCCOCCN)nc(-c3ccc(C(C)(C)C)cc3)n2)c1 :: 56.7
NCCOCCOCCNc1nc(NCC2CCCO2)nc(-c2ccc(C(F)(F)F)cc2)n1 (stereo not given) :: 23.4

For each entry beneath this line, provide reported inhibition at 10 µM.
1. CC(C)(C)c1ccc(-c2nc(NCCOCCOCCN)nc(NCCc3ccccc3)n2)cc1
2. CC(C)(C)c1ccc(-c2nc(NCCOCCOCCN)nc(Nc3ccc(Cl)cc3)n2)cc1

[40.2, 32.5]

----------
# Experiment: Tmax in C57BL/6 mouse at 1 mg/kg, ip incubation up to 6 hrs by LC-MS/MS analysis
# Format: ADME, organism-based
# Recorded conditions: in vivo
Metric name: Tmax (min)
Give bare numbers, in min.

Can you look up the measured Tmax of CC(C)(C)c1ccc(-c2nc(NCCOCCOCCN)nc(NCC3CCCO3)n2)cc1.Cl (stereo unspecified) for me?
10.2

----------
# Experiment: Cmax in C57BL/6 mouse at 1 mg/kg, ip incubation up to 6 hrs by LC-MS/MS analysis
# Assay type: ADME, organism-based
# Set-up: route intraperitoneal, dose 1 mg/kg, time <=6
# Recorded conditions: in vivo
Metric name: Cmax (ng/mL)
Answers are plain numbers, in ng/mL.

Request the reported Cmax associated with CC(C)(C)c1ccc(-c2nc(NCCOCCOCCN)nc(NCC3CCCO3)n2)cc1.Cl (stereo unspecified)
136

----------
# Experiment: AUC (0 to last) in C57BL/6 mouse at 1 mg/kg, ip incubation up to 6 hrs by LC-MS/MS analysis
# Type: ADME, organism-based
# Parameters: route intraperitoneal, dose 1 mg/kg, time <=6
# Recorded conditions: in vivo
Metric name: AUC(0-t) at 6 h (ng·h/mL)
Answers are plain numbers, in ng·h/mL.

# lookup: AUC(0-t) at 6 h of CC(C)(C)c1ccc(-c2nc(NCCOCCOCCN)nc(NCC3CCCO3)n2)cc1.Cl (stereo unspecified)
209

----------
# Experiment: Antiinflammatory activity in […] cells assessed as reduction in LPS-induced IL-6 release at 10 uM pre incubated for 1 hr followed by LPS stimulation and measured after 30 mins by ELISA
# Type: functional
Classification field: enter condition met for inhibition at 10 µM values not below 30%, condition not met for values below it.

C=CCNc1nc(NCCOCCOCCN)nc(-c2ccc(C(C)(C)C)cc2)n1 :: condition met

Please indicate if the recorded inhibition at 10 µM for `CC(C)(C)c1ccc(-c2nc(NCCOCCOCCN)nc(NCc3ccccc3)n2)cc1` meets or exceeds 30%.
condition met

# bool: inhibition at 10 µM of NCCOCCOCCNc1nc(NCC2CCCO2)nc(-c2ccccc2)n1 (stereo not drawn) >= 30%
condition not met

Is the recorded value of inhibition at 10 µM equal to or greater than 30% for this compound? `CC(C)(C)c1ccc(-c2nc(NCCOCCOCCN)nc(NCc3cccc(Cl)c3)n2)cc1`
condition met

----------
# Experiment: Antiinflammatory activity in […] cells assessed as reduction in LPS-induced IL-6 release at 10 uM pre incubated for 1 hr followed by LPS stimulation and measured after 30 mins by ELISA
# Assay type: functional
Metric name: inhibition at 10 µM (%)
One number for each entry, in %.

CC(C)(C)c1ccc(-c2nc(NCCOCCOCCN)nc(NCc3ccc(Cl)cc3)n2)cc1 :: 50
CC(C)(C)c1ccc(-c2nc(NCCOCCOCCOCCN)nc(NCC3CCCO3)n2)cc1 (centres undefined) :: 22.2
NCCOCCOCCNc1nc(NCC2CCCO2)nc(-c2ccc(F)cc2)n1 (centres undefined) :: 33.4

Note: attention shifts to another entry.
Sample CC(C)(C)c1ccc(-c2nc(NCCOCCOCCN)nc(NCC3CCCCO3)n2)cc1 (centres undefined) — what was its inhibition at 10 µM?
56.7
